Test system: Hs578T
assay summary: drug sensitivity score (DSS), CellTox Green (DSS (AUC-based score)); higher = stronger drug effect (viability inhibition or cytotoxicity); extreme values may be limits of the assay
conditions: incubation time: 72 h
Binary call on drug sensitivity score: 1 from 2 upward, 0 beneath that.

Example entries and their recorded answers appear below.
[[record]]
molecule = "COc1cc2c(N3CCN(C(=O)Nc4ccc(OC(C)C)cc4)CC3)ncnc2cc1OCCCN1CCCCC1 [Tandutinib]"
group = 0

[[record]]
molecule = "CCN(CC)CCOc1ccc(C(=C(Cl)c2ccccc2)c2ccccc2)cc1 [Clomifene]"
group = 1

[[record]]
molecule = "Cc1cc2c(F)c(Oc3ncnn4cc(OC[C@@H](C)O)c(C)c34)ccc2[nH]1 [Brivanib]"
group = 0


Textbook exercise: given the entry COc1cc2c(Oc3ccc(NC(=O)C4(C(=O)Nc5ccc(F)cc5)CC4)cc3F)ccnc2cc1OCCCN1CCOCC1 [Foretinib] , state whether its drug sensitivity score is greater than or equal to 2. 1

Textbook exercise: given the entry C[C@@H]1C[C@H]2[C@@H]3CCC4=CC(=O)C=C[C@]4(C)[C@@]3(F)[C@@H](O)C[C@]2(C)[C@@]1(O)C(=O)CO [Dexamethasone] , state whether its drug sensitivity score is greater than or equal to 2. 0

Textbook exercise: given the entry CC[C@@H]1C(=O)N(C)c2cnc(Nc3ccc(C(=O)N[C@H]4CC[C@H](N5CCN(CC6CC6)CC5)CC4)cc3OC)nc2N1C(C)C [Volasertib] , state whether its drug sensitivity score is greater than or equal to 2. 1

Textbook exercise: given the entry NC1(c2ccc(-c3nc4ccn5c(=O)[nH]nc5c4cc3-c3ccccc3)cc2)CCC1 [MK-2206] , state whether its drug sensitivity score is greater than or equal to 2. 0

Textbook exercise: given the entry CC[C@H](CC#N)OC(=O)N[C@@H](C)c1cccc(NC(=O)Nc2ccc(-c3cnco3)c(OC)c2)c1 [AVN944] , state whether its drug sensitivity score is greater than or equal to 2. 1

Textbook exercise: given the entry COc1cc(Nc2ncc(F)c(Nc3ccc4c(n3)N(COP(=O)(O)O)C(=O)C(C)(C)O4)n2)cc(OC)c1OC [Fostamatinib] , state whether its drug sensitivity score is greater than or equal to 2. 1
